Test system: HL-60
run_description: NCI tumour cell line growth inhibition, 48 h
Active and inactive are the calls of the source. Rule as the data show it: active = GI50 up to about 1.1 µM and inactive = higher.
Write down one outcome, taken from 1 (active), -1 (inactive)

Example entries begin here.
{"structure": "CC(C)(C)OC(=O)N(CCCN)CCCCN", "label": -1}
{"structure": "Nc1[nH]nc2ccccc12", "label": -1}
{"structure": "COc1cc(Nc2nc3cc(C(F)(F)F)ccc3n3cccc23)cc(OC)c1OC", "label": 1}
{"structure": "C=CCC(CC=O)(C(=O)OCC)C(=O)OCC", "label": -1}
{"structure": "O=C1c2c(nc3ccccc3c2-c2ccccc2)CN1Nc1ccccn1", "label": -1}

Now let's try a different one.
Identify the outcome logged in this assay for the compound shown: COc1ccc(CNc2nc3cc(C(F)(F)F)ccc3nc2C)cc1OC
-1

This collection of values is drawn from ChEMBL document CHEMBL1201862.
